Test system: CCRF-CEM leukemia
Test: NCI-60 one-dose screen, 48 h (100 = growth as untreated, 0 = no growth, -100 = all killed)
Settings: 10 µM
Compounds without any hit were thinned out: in the full panel of roughly 83,000, 20% have a hit.
assayEndpoint: growth (%)
Reply numerically in %, unit not repeated.

O=C1CC[C@@H](C(=O)N[C@H]2CSSC[C@@H](C(=O)N/C=C/c3ccc(O)cc3)NC(=O)[C@H](Cc3ccccc3)NC(=O)[C@@H]3CCCN3C(=O)[C@@H]3CCCN3C2=O)N1 68
CCCCCCCC/C=C/CCCCCCCCC1=NCCN1CCO 19.7

(Q) Tell me growth reported for COc1cc(-c2cc(/C=C/C(C)=O)[nH]n2)cc(OC)c1OC
(A) 20
